Reference source: ChEMBL document CHEMBL3739345

List of ΔTm values.
Target: Peregrin (Homo sapiens)
Sequence (whole entry): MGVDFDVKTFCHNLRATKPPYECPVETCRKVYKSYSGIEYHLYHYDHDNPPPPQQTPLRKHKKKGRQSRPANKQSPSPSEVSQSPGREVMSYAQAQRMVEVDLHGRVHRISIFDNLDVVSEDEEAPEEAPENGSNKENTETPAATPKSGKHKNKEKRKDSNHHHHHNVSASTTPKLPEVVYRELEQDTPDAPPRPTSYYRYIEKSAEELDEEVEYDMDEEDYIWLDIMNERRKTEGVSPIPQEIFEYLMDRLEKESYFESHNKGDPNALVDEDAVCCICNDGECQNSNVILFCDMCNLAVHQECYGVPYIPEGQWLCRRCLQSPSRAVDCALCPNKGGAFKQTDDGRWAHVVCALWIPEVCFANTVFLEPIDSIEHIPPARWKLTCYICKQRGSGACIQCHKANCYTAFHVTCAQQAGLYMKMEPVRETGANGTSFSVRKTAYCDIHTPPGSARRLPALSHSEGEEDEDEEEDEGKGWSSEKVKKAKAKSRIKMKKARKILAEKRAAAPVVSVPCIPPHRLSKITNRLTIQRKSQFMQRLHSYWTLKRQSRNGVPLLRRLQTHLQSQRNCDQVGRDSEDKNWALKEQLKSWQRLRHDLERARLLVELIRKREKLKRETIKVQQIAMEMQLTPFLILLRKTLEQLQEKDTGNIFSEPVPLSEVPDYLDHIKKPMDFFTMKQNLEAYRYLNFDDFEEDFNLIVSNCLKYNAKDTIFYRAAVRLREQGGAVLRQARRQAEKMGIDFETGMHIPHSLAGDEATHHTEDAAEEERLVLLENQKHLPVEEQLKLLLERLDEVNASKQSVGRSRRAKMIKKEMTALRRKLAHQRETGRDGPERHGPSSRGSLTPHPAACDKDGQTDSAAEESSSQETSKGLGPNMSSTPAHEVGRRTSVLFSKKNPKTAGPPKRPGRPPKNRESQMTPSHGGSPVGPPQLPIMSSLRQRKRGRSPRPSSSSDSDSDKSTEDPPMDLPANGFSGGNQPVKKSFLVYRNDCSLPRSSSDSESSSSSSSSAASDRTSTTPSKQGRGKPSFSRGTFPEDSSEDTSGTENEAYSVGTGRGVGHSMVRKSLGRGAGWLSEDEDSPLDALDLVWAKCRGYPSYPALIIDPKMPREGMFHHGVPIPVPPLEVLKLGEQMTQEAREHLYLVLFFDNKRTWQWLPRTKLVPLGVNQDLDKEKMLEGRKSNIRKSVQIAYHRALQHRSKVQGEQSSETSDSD
Assay: Binding affinity to human BRPF1B assessed as change in melting temperature at 10 uM by differential scanning fluorimetry
Readout Name: ΔTm (°C)

- CC(=O)c1cc(-c2ccc(Cl)cn2)c2cc(N3CCOCC3)ccn12: 0.22
- CCCCC(=O)c1cc(-c2cccc3nccn23)c2cc(N3CCN(C)CC3)ccn12: 0.5
- COc1cccc(-c2cc(C(C)=O)n3ccc(N4CCOCC4)cc23)n1: 0.53
- CC(=O)c1cc(-c2cc(C(=O)O)ccn2)c2cc(N3CCOCC3)ccn12: 0.01
- CC(=O)c1cc(-c2cccc(Cl)n2)c2cc(N3CCOCC3)ccn12: 0.34
- CCC(=O)c1cc(-c2cccc3nccn23)c2cc(N3CCN(C)CC3)ccn12: 0.15
- CCC(=O)c1cc(-c2cccc3nccn23)c2cc(N3CCOCC3)ccn12: 0.2
- CN1CCN(c2ccn3c(C(=O)C4CC4)cc(-c4cccc5nccn45)c3c2)CC1: 0.085
- CN1CCN(c2ccn3c(C(=O)C(F)(F)F)cc(-c4cccc5nccn45)c3c2)CC1: 0.26
